pIC50 listing for selected compounds.
# tgt: NLRP3 (Homo sapiens, UniProt Q96P20)
# Sequence (Q96P20 whole entry): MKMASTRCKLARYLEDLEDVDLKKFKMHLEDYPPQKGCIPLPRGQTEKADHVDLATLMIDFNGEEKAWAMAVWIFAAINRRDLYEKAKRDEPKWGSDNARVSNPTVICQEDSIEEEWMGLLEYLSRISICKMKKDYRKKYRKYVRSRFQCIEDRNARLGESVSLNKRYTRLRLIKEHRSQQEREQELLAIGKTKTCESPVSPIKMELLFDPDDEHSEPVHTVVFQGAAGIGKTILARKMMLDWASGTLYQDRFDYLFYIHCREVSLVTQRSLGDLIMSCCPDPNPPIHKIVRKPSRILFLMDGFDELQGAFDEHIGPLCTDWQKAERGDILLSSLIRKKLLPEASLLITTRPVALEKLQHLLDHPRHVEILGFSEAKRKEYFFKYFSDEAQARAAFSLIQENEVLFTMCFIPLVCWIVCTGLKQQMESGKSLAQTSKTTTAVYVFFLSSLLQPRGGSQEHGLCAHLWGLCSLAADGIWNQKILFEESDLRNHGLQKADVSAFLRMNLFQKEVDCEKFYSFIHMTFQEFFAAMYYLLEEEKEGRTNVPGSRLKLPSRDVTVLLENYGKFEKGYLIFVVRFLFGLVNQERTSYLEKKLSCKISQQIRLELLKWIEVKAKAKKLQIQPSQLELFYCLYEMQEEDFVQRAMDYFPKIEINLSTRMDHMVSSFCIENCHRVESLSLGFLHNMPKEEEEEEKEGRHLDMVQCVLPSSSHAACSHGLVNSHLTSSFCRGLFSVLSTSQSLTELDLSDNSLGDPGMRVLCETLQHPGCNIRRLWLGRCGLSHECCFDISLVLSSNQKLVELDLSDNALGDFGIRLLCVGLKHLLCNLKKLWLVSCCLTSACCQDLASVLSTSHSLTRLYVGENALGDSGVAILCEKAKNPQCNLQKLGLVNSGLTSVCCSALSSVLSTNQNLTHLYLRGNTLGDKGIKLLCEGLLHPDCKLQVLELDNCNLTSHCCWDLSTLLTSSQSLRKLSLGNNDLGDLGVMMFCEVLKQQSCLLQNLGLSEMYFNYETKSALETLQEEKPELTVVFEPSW
# measurement notes: THP-1 cells pyroptosis assay
# Assay type: cell-based
# Set-up: Seed THP-1 cells (25,000 cells/well) containing 1.0 μg/ml LPS; host or cells: THP-1
# experimental setup: LPS 1.0 μg/ml, nigericin 5 μM, resazurin readout, 10 μM top dose (Example 2: top dose of 30 μM)
pIC50: −log10 of the molar value.
endpoint name: pIC50

> print(dat)
                                    compound  endpoint.name  result
 1  CC(C)(O)CNS(=O)(=O)c1nnc(Nc2c3c(cc4c2CCC4)CCC3)[nH]1          pIC50  ≥ 5.00
 2  CN1CCCC(CS(=O)(=O)c2nnc(Nc3c4c(cc5c3CCC5)CCC4)[nH]2)C1 (stereo not drawn)          pIC50  ≥ 5.30
 3  COc1cc(-c2ccc3c(c2Nc2nnc(S(=O)(=O)N4CCC5(CCCN5C)CC4)[nH]2)CCO3)ccn1          pIC50  ≥ 6.30
 4  O=S(=O)(c1nnc(Nc2c3c(cc4c2CCC4)CCC3)[nH]1)N1CC2(CCN(C3CC3)C2)C1          pIC50  ≥ 6.30
 5  [2H]C([2H])([2H])Oc1cc(-c2ccc3c(c2Nc2nnc(S(=O)(=O)N4CC5(CCN(C)C5)C4)[nH]2)CCC3)ccn1          pIC50  ≥ 6.30
 6  N#Cc1ccc(S(=O)(=O)c2nnc(Nc3c4c(cc5c3CCC5)CCC4)[nH]2)cc1          pIC50  ≥ 5.30
 7  O=S(=O)(NCCCN1CCCC1)c1nnc(Nc2c3c(cc4c2CCC4)CCC3)[nH]1          pIC50  ≥ 6.00
 8  Cn1cc(C#N)c(S(=O)(=O)c2nnc(Nc3c4c(cc5c3CCC5)CCC4)[nH]2)n1          pIC50  ≥ 5.30
 9  O=S(=O)(NCCN1CCCC1)c1nnc(Nc2c3c(cc4c2CCC4)CCC3)[nH]1          pIC50  ≥ 6.30
10  CN1Cc2ccc(S(=O)(=O)c3n[nH]c(Nc4c5c(cc6c4CCC6)CCC5)n3)cc2C1=O          pIC50  ≥ 5.30
11  O=S(=O)(c1nnc(Nc2c3c(cc4c2CCC4)CCC3)[nH]1)N1CC2(CCC(O)C2)C1 (stereo not drawn)          pIC50  ≥ 6.00
12  CN(C)C[C@@H]1CCN(S(=O)(=O)c2nnc(Nc3c4c(cc5c3CCC5)CCC4)[nH]2)C1          pIC50  ≥ 6.30
13  O=S(=O)(c1cccnc1)c1nnc(Nc2c3c(cc4c2CCC4)CCC3)[nH]1          pIC50  ≥ 5.30
14  CC(CNS(=O)(=O)c1nnc(Nc2c3c(cc4c2CCC4)CCC3)[nH]1)N(C)C (stereo not drawn)          pIC50  ≥ 5.30
15  CN1CCCCC1CNS(=O)(=O)c1nnc(Nc2c3c(cc4c2CCC4)CCC3)[nH]1 (stereo not drawn)          pIC50  ≥ 5.30
16  COC1(c2cc(S(=O)(=O)c3nnc(Nc4c5c(cc6c4CCC6)CCC5)[nH]3)nn2C2CC2)COC1          pIC50  ≥ 5.30
17  O=S(=O)(c1nnc(Nc2c3c(cc4c2CCC4)CCC3)[nH]1)N1CCC(F)(F)CC1          pIC50  ≥ 5.00
18  O=S(=O)(c1nnc(Nc2c3c(cc4c2CCC4)CCC3)[nH]1)N1CCC2(CCCN2)CC1          pIC50  ≥ 6.30
